For each of the compounds below, state its TGI.
tested on: HS 578T breast; test: NCI tumour cell line growth inhibition, 48 h

Requested field: TGI. Item: CC(=O)NC1(C)CCC(C(C)(C)NC(C)=O)CC1 (centres undefined)
> 100 µM

Okay, and `N#CCCNCCN(CCN(C(=O)Nc1ccccc1)c1ccccc1)C(=O)Nc1ccccc1` ?
> 100 µM

Okay, and `CC(C)Oc1cc(OCC(=O)O)cc(C(=O)N(CCC(N)=O)C(=O)Nc2ccc(C(=O)O)cc2OC(C)C)c1` ?
> 100 µM

Okay, and `O=C1CCC/C=C\C[C@H]2C=C(Cl)C(=O)/C2=C/C[C@H](CCCCC(F)(F)F)OC(=O)CCC/C=C\C[C@H]2C=C(Cl)C(=O)/C2=C/C[C@H](CCCCC(F)(F)F)O1` ?
7.5 µM

###

tested on: LOX IMVI melanoma; assay: NCI tumour cell line growth inhibition, 48 h
Measured endpoint: TGI

Requested field: TGI. Item: `CCOC(=O)C(C(=O)c1ccccc1-c1ccccc1C(=O)O)=P(c1ccccc1)(c1ccccc1)c1ccccc1`
40.8 µM

Okay, and `Brc1ccc2c(-c3nc(-c4c[nH]c5ccccc45)cs3)c[nH]c2c1` ?
> 73 µM

Okay, and C=CCOc1ccc(C2c3c([nH][nH]c3=O)CC(O)(OCC)C2C(=O)OCC)cc1OC (centres undefined) ?
> 100 µM

Okay, and `CC(C)CC(=O)NC(Nc1ccc(S(=O)(=O)Nc2ncccn2)cc1)(C(F)(F)F)C(F)(F)F` ?
> 100 µM

Okay, and `O=c1c2ccccc2oc2c1ccc1ncccc12` ?
43.8 µM

Okay, and `C(=N\Nc1ncc(-c2cc3cc4c(cc3o2)OCO4)s1)/c1c[nH]c2ccccc12` ?
1.7 µM

Okay, and O=C(CC(O)(c1ccccc1)c1ccc(Cl)cc1)NC(=O)c1ccccc1O (centres undefined) ?
23.3 µM

Okay, and `CCc1ccc(Cc2ccc(CC)c(NC(=O)C(=O)Cc3nc4ccccc4nc3C)c2CC)c(CC)c1NC(=O)C(=O)Cc1nc2ccccc2nc1C` ?
> 100 µM

Okay, and `COc1ccc(C(=O)O/N=C2\CCCC\C2=C/c2ccccc2)cc1` ?
> 100 µM

###

tested on: SF-539 CNS; experiment: NCI tumour cell line growth inhibition, 48 h
Measured endpoint: GI50

Requested field: GI50. Item: `CC[C@]1(O)C[C@@H]2CN(Cc3c([nH]c4ccccc34)[C@@](C(=O)OC)(c3cc4c(cc3OC)N(C)[C@H]3[C@@](O)(C(=O)OC)[C@H](OC(C)=O)[C@]5(CC)[C@@H]6C[C@@H]6CN6CC[C@]43[C@@H]65)C2)C1`
0.0363 µM

Okay, and CCN(CC)CCn1c(=N)n(CC(O)c2ccc(Cl)c(Cl)c2)c2ccccc21 (stereo not given) ?
2.86 µM

Okay, and `CCOC(=O)c1cc2c(n1Cc1cccc(OC)c1)-c1oncc1CC2` ?
1.16 µM

Okay, and O=P(O)(O)OC1C(OP(=O)(O)O)C(OP(=O)(O)O)C(OP(=O)(O)O)C(OP(=O)(O)O)C1OP(=O)(O)O (stereo not given) ?
> 2000 µM

Okay, and `COc1ccc(C(=O)c2cc3c(N)c(C(=O)Nc4cccc(Cl)c4)sc3nc2C)cc1` ?
0.995 µM

Okay, and `C(=N\Nc1ncc(-c2cc3cc4c(cc3o2)OCO4)s1)/c1c[nH]c2ccccc12` ?
0.669 µM

Okay, and CC(=O)O[C@@H]1C=CC(=O)C2(CC(=O)O[C@@H]2/C=C(\C)CCC=C(C)C)C1 (stereo not given in full) ?
0.591 µM

Okay, and `CCCCc1ccc2nc(NC(=O)OC)[nH]c2c1` ?
0.0366 µM

Okay, and `Cc1nc2c(cnn2-c2ccnc3c(C(F)(F)F)cccc23)c(=O)o1` ?
> 100 µM

Okay, and `COC12C=C/C(=C(/C(=O)OCc3ccncn3)C(=O)CCCCCCCCC3(OC)C=C/C(=C(/C(=O)OCc4ccncn4)C(=O)CCCCCCCC1)O3)O2` ?
0.354 µM

###

tested on: MOLT-4 leukemia; experiment: NCI tumour cell line growth inhibition, 48 h; in the data active = GI50 below about 0.43 µM; inactive = the rest
# valid calls are label 1 (active), label 0 (inactive); nothing else

Outcome? CC(=O)O[C@@H]1C=CC(=O)C2(CC(=O)O[C@@H]2/C=C(\C)CCC=C(C)C)C1 (some centres undefined)
label 1

Okay, and `COc1cc[c]([Hg][Cl])cc1` ?
label 0

Okay, and `C=C1C(=O)O[C@@H]2[C@@H]3O[C@@](C)(CC/C=C(\C)CCC[C@@H]2C)[C@H](O)C[C@@H]13` ?
label 0

Okay, and `CCc1cc(C(N)=O)ccc1-n1nc(C(C)C)c2c(-n3cnc(-c4cnn(C)c4)c3)ccnc21` ?
label 0

Okay, and `CCOC(=O)c1cnc2ccc(Cl)cc2c1NCCCN(C)C` ?
label 0

Okay, and `O=C(Nc1ccc(Cl)cc1)NS(=O)(=O)c1ccc2c(c1)CCC2` ?
label 0

Okay, and `COc1ccccc1/C=C1\COc2ccc(O)c(O)c2C1=O` ?
label 0

Okay, and `CCN1CCC(C(=O)Nc2n[nH]c3nnc(-c4cccc(F)c4F)cc23)CC1` ?
label 0

Okay, and Cc1cc(O)c2c(c1)C[C@@H](O)C1=C2C(=O)c2c(O)ccc(OC3CC(O)C(OC4CC(OC5CCC(OC6CC(O)C(OC7CC(OC8CCC(O)C(C)O8)C(O)C(C)O7)C(C)O6)C(C)O5)C(O)C(C)O4)C(C)O3)c2C1=O (some centres undefined) ?
label 1

###

test system: KM20L2 colon; assay: NCI tumour cell line growth inhibition, 48 h
Measured endpoint: TGI (µM)
Numeric only. Scale: µM

Value wanted: TGI (KM20L2 colon) of entry CCC12C=CCN3CC[C@]4(C(=C(C(=O)OC)[C@@H]1Nc1ncnc5c1ncn5C1OC(COC(C)=O)C(OC(C)=O)C1OC(C)=O)Nc1ccccc14)C32 (stereo not given in full)
6.94

Okay, and `CC(=O)Oc1c(-c2ccccc2)[nH]c2cc([N+](=O)[O-])c(/C(Cl)=C/c3ccccc3)cc12` ?
18.6

Okay, and CC(C)c1ccc2c(c1)CCC1C(C)(C)[C@@H](O)CC[C@]21C (stereo not given in full) ?
44.4

###

For each of the compounds below, state its TGI.
system: UACC-62 melanoma; assay: NCI tumour cell line growth inhibition, 48 h

Requested field: TGI. Item: Cc1c(CNc2ccc(Cl)c(C(=O)NC(CC(=O)O)C(=O)O)c2)ccc2nc(N)nc(N)c12 (stereo not given)
> 1000 µM

Okay, and C[N+](C)(C)CC(=O)N/N=C(/C=C/c1ccccc1)CC1OC(=O)c2ccccc21 (stereo not given) ?
> 100 µM

Okay, and COCCNC(=O)C1C(=O)N(CCOC)C(=O)/C1=N/N (stereo not given) ?
> 100 µM

Okay, and `O=C(CCc1cccc(O)c1)NCCc1cccc(O)c1` ?
> 100 µM

Okay, and `CCc1ccc(Cc2ccc(CC)c(NC(=O)C(=O)Cc3nc4ccccc4nc3C)c2CC)c(CC)c1NC(=O)C(=O)Cc1nc2ccccc2nc1C` ?
> 100 µM

###

test system: HCT-116 colon; assay: NCI tumour cell line growth inhibition, 48 h
For each of the molecules below, state its TGI.
Numeric only. Scale: µM

Requested field: TGI. Item: `Cc1ccc(CCC(=O)Nc2ncc(Cc3cc(Cl)ccc3Cl)s2)o1`
2.14

Okay, and `O=c1ccc2nc(-c3ccccc3)nn(-c3ccccc3)c-2c1` ?
2.08

Okay, and `CC/C=C/[C@@H]1C=C[C@@H]2CCC[C@H]2[C@@H]1CC[C@H](O)[C@H](C)N` ?
2.86

Okay, and `CC/C(Cl)=N\OC(=O)Nc1ccc(OC)cc1` ?
12

###

For each of the compounds below, state its TGI.
tested on: HT29 colon; experiment: NCI tumour cell line growth inhibition, 48 h

Requested field: TGI. Item: `CN(NC(=O)/C(=C/c1ccc(O)cc1)NC(=O)c1ccccc1)c1ccnc2cc(Cl)ccc12`
23 µM

Okay, and O=C1CCCC1C(=O)Nc1ccc2ccccc2c1 (configuration not stated) ?
> 100 µM

Okay, and C=CCNC1=C2C[C@@H](C)C[C@@H](OC)C(OC(=O)CCCN(C)C)[C@H](C)/C=C(\C)[C@@H](OC(N)=O)[C@H](OC)/C=C\C=C(/C)C(=O)NC(=CC1=O)C2=O (some centres not stated) ?
12.1 µM

Okay, and CCCCC/C=C1/CC(CO)(COC(=O)CC(C(C)C)C(C)C)OC1=O (configuration not stated) ?
34.9 µM

Okay, and CCCC(Sc1nc(N)nc2nc[nH]c12)C(=O)O (configuration not stated) ?
> 100 µM

Okay, and `C=CCCc1cc(OC)ccc1CN(C)C(C)(C)CO` ?
> 100 µM

Okay, and `O=C(Nc1ccc(Cl)c(Cl)c1)Nc1ccc(Cl)c([N+](=O)[O-])c1` ?
4.82 µM

Okay, and COC(=O)C(=O)C(C#N)c1cccc2ccccc12 (configuration not stated) ?
> 100 µM

Okay, and `Cc1ccccc1N=C(N)NC#N` ?
> 100 µM

Okay, and `CCOC(=O)c1cnc2ccc(Cl)cc2c1NCCCN(C)C` ?
52.6 µM

Okay, and COC1OC(OC)C2C(c3c(C)cc(C)cc3C)=NOC12 (configuration not stated) ?
> 100 µM

Okay, and `O=c1[nH]nc(-c2ccccc2)c(-c2ccccc2)c1-n1nc(-c2ccccc2)c2ccccc2c1=O` ?
> 100 µM

Okay, and `COc1cc2c(cc1OCCCC(=O)Nc1cc(C(=O)Nc3cc(C(=O)Nc4cc(C(=O)NCCCN(C)C)n(C)c4)n(C)c3)n(C)c1)N=C[C@@H]1CCCN1C2=O` ?
4.1 µM

Okay, and `CSC1=Nc2ccccc2-c2nc(-c3ccccc3)cc(-c3ccccc3)c2C1` ?
> 100 µM

Okay, and `NC(=O)C/C=C/CC(N)=O` ?
> 100 µM

Okay, and `O=[N+]([O-])C(/C(Cl)=C(/Cl)N1CCOCC1)=C1\NCCO1` ?
> 100 µM

Okay, and `COc1c(-c2cc(C)c(Cl)c(=O)[nH]2)c(O)c(OC)c2occc12` ?
> 100 µM

Okay, and `O=C(O)Cc1ccc(Oc2nc3ccccc3nc2-c2cccs2)cc1` ?
> 100 µM

Okay, and `O=C(Cn1ccnc1[N+](=O)[O-])NCCO` ?
> 100 µM

Okay, and Cc1cn(C2CC(O)C(CO)C2C)c(=O)[nH]c1=O (configuration not stated) ?
> 100 µM

Okay, and `CC(C)(C)c1cc(C(O)(C(=O)O)C(=O)O)cc(C(C)(C)C)c1O` ?
> 100 µM

Okay, and `COc1ccc(CN2CCc3c(Cl)nc(N)nc3C2=O)c(OC)c1` ?
29.1 µM
